Hey, just so you know, these numbers are from paper PMC10820264.

molecular target: peripheral anionic site of Electrophorus electricus AChE (EeAChE) (Electrophorus electricus, UniProt O42275); type: binding;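 note: compounds tested at 20 µM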
Sequence (O42275 24-633): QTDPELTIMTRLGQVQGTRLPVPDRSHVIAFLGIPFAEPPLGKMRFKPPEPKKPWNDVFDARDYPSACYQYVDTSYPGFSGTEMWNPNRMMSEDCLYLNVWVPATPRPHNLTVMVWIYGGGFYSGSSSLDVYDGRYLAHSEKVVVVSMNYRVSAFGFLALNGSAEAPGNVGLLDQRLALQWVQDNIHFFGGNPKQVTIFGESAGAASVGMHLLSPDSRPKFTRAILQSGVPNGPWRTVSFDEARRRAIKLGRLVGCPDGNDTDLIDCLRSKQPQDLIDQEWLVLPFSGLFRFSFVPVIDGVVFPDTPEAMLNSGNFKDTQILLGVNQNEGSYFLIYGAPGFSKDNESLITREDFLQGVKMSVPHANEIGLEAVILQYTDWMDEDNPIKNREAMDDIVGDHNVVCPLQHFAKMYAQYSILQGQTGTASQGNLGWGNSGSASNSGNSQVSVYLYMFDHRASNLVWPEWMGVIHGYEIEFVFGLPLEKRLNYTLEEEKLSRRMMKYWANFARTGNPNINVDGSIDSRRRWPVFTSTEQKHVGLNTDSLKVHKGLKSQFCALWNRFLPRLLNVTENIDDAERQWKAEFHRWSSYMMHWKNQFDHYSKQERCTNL
endpoint: Propidium Displacement
// return the numeric value with its unit appended

{"compound": "CC(C)(C)c1cc(CNCCCCCCNc2c3c(nc4ccccc24)CCC3)cc(C(C)(C)C)c1O [16c]", "Propidium Displacement": "15.8 ± 1.4%"}

Param item = CC(C)(C)c1cc(C=NCCCCCCNc2c3c(nc4ccccc24)CCC3)cc(C(C)(C)C)c1O [13c] ; retrieve measured Propidium Displacement. 16.5 ± 1.3%

// query: CC(C)(C)c1cc(CNCCCCCCCCNc2c3c(nc4ccccc24)CCCCC3)cc(C(C)(C)C)c1O [18d] 12.3 ± 0.8%

// query: CC(C)(C)c1cc(C=NCCCCCCCCNc2c3c(nc4ccccc24)CCC3)cc(C(C)(C)C)c1O [13d] 15.1 ± 0.9%
